- test system: Calpain-1 (Sus scrofa)
- protocol summary: In vitro inhibition of porcine mu-calpain.
Cut-off 600 nM on IC50: below means Met, at or above means Not met.

Task: Please determine if CC(C)[C@H](NS(=O)(=O)c1ccc(F)cc1)C(=O)N[C@@H](C=O)Cc1ccccc1 is below 600 nM in terms of IC50.
Result: Met

Task: Another: Cc1ccc(S(=O)(=O)N[C@H](C(=O)N[C@@H](C=O)CC(C)C)C(C)C)cc1
Result: Met

Task: Try this compound too: CC(C)[C@H](NS(=O)(=O)c1ccc(F)cc1)C(=O)N[C@H](C)C=O
Result: Not met

Task: Would you mind doing CC(C)C[C@H](C=O)NC(=O)[C@@H](NS(=O)(=O)c1ccc(Cl)cc1)C(C)C as well?
Result: Met

Task: Further, for CC(C)[C@H](NS(=O)(=O)c1ccc(F)cc1)C(=O)N[C@@H](C=O)Cc1c[nH]c2ccccc12 ?
Result: Met

Task: Ok, now CC(C)[C@H](NS(=O)(=O)c1ccc2ccccc2c1)C(=O)N[C@@H](C=O)Cc1ccccc1
Result: Met

Task: How about CC(C)C[C@H](C=O)NC(=O)[C@H](C(C)C)N(C)S(=O)(=O)c1ccc(F)cc1 ?
Result: Not met

Task: Try this compound next: CC(C)C[C@H](C=O)NC(=O)[C@@H](NS(C)(=O)=O)C(C)C
Result: Not met

Task: What do you have for CC(C)[C@H](NS(=O)(=O)c1ccc(Cl)cc1)C(=O)N[C@@H](C=O)Cc1ccccc1 ?
Result: Met
